tested on: 556581-035-R-J1-PDC complex spheroid growth; experiment: Anticancer human tumor 556581-035-R-J1-PDC patient-derived ovarian carcinoma cell line growth inhibition [AhR]; conditions: second compound 3.16 µM; first compound 0.0949 µM; hits give low values;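 also: compound exposure lasted 7 days; 100% = DMSO vehicle control growth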
measured_metric: viability, T/C (%)
Quick note: give the figure in %, leave out the unit.

Example entries begin here.
Nc1ncn(C2CC(O)C(CO)S2)c(=O)n1 (stereo not drawn) + Cc1ccccc1N=Nc1ccc(NC(=O)c2ccnn2C)c(C)c1 : 76.8
Nc1ncn(C2CC(O)C(CO)S2)c(=O)n1 (stereo not drawn) + Cc1cncc(-c2nc(NCCc3c[nH]c4ccccc34)c3ncn(C(C)C)c3n2)c1 : 79.5

Please find the next compound below.
viability, T/C reading for CCc1c2c(nc3ccc(O)cc13)-c1cc3c(c(=O)n1C2)COC(=O)[C@]3(O)CC + CC(CO)NC(=O)c1cc(-c2ccc(Cl)cc2)nn(-c2cnn(C)c2)c1=O : 18
